- protocolSummary: Plasma pharmacokinetics of SU5416 and its metabolites
- Format: in vivo, human
- conditionsUsed: human, plasma, iv, 48 mg/m2, t1/2,z (terminal phase half-life), Stratum II (EIACD), 48 mg/m^2 IV, week 1, 2 patients, mean ± SD
propertyMeasured: half-life (h)

• Cc1cc(C)c(/C=C2\C(=O)Nc3ccccc32)[nH]1 = 1.07
